KIDNEY_L for assorted compounds
species on record: Rattus norvegicus; assay: Open TG-GATES - Regimen: Daily Repeat; assay type: toxicity, organism-based, Sprague-Dawley; design: regimen Daily Repeat, gender Male, age 6 weeks; settings: in vivo, po, 0 mg/kg, […], tissue Kidney, route gavage, dose level Control, time 28 day
Only the number, expressed in g, is required.

NC1=NC(=O)C(c2ccccc2)O1 (stereo not drawn); 1.4
CC(C)NNC(=O)c1ccncc1; 1.4
CNC(=C[N+](=O)[O-])NCCSCc1ccc(CN(C)C)o1; 1.5
COC(=O)C1=C(C)NC(C)=C(C(=O)OC)C1c1ccccc1[N+](=O)[O-]; 1.4
CCOc1ccc(NC(C)=O)cc1; 1.4

Note to self: KIDNEY_L recorded for "CN/C(=N/CCSCc1nc[nH]c1C)NC#N" was 1.5

Record summary for "Cc1nnc2n1-c1ccc(Cl)cc1C(c1ccccc1Cl)=NC2" : reported KIDNEY_L = 1.4

KIDNEY_L recorded for this compound, CN(C)CCC(c1ccc(Cl)cc1)c1ccccn1 (stereo not drawn) , is 1.4

###

species on record: Rattus norvegicus; test: Open TG-GATES - Regimen: Daily Repeat; assay type: toxicity, organism-based, Sprague-Dawley; set-up: regimen Daily Repeat, gender Male, age 6 weeks; details: in vivo, po, 1000 mg/kg, […], tissue Plasma, route gavage, dose level High, time 14 day
I would appreciate it if you labelled entries criterion met when LDH is 100 IU/L or higher, otherwise criterion not met.

Please review the following examples before continuing.
CN/C(=N/CCSCc1nc[nH]c1C)NC#N; criterion met
CNC(=C[N+](=O)[O-])NCCSCc1ccc(CN(C)C)o1; criterion met
O=C(OC[C@H]1O[C@@H](OC(=O)c2cc(O)c(O)c(OC(=O)c3cc(O)c(O)c(O)c3)c2)[C@H](OC(=O)c2cc(O)c(O)c(OC(=O)c3cc(O)c(O)c(O)c3)c2)[C@@H](OC(=O)c2cc(O)c(O)c(OC(=O)c3cc(O)c(O)c(O)c3)c2)[C@@H]1OC(=O)c1cc(O)c(O)c(OC(=O)c2cc(O)c(O)c(O)c2)c1)c1cc(O)c(O)c(OC(=O)c2cc(O)c(O)c(O)c2)c1; criterion not met
Cc1nnc2n1-c1ccc(Cl)cc1C(c1ccccc1Cl)=NC2; criterion met
CCOc1ccc(NC(C)=O)cc1; criterion met

Alright, here's another compound for you.
**Q:** Record "COC(=O)C1=C(C)NC(C)=C(C(=O)OC)C1c1ccccc1[N+](=O)[O-]" ; criterion: LDH no lower than 100 IU/L. Met?
**A:** criterion not met

###

Listed here are molecules together with their documented LDH.
organism: Rattus norvegicus; assay: Open TG-GATES - Regimen: Single; format: toxicity, organism-based, Sprague-Dawley; design: regimen Single, gender Male, age 6 weeks; settings: in vivo, po, 0 mg/kg, 24 h, tissue Plasma, route gavage, dose level Control
// return numeric value only (unit: IU/L, not printed)

Example entries and their recorded answers appear below.
NC1=NC(=O)C(c2ccccc2)O1 (stereo not given); 58.8
Nc1c2c(nc3ccccc13)CCCC2; 300.2
COC(=O)C1=C(C)NC(C)=C(C(=O)OC)C1c1ccccc1[N+](=O)[O-]; 67.4
CCOc1ccc(NC(C)=O)cc1; 106.8
CCCc1cc(=O)[nH]c(=S)[nH]1; 86.6

# molecule "CC(C)NNC(=O)c1ccncc1" ; its LDH = 287.6

###

species: Rattus norvegicus; assay: Open TG-GATES - Regimen: Daily Repeat; format: toxicity, organism-based, Sprague-Dawley; set-up: regimen Daily Repeat, gender Male, age 6 weeks; details: in vivo, po, 0 mg/kg, 72 h, route gavage, dose level Control, time 3 day
This listing pairs compounds with measured TERMINAL_BW.
Entry rule: numbers only, all in g.

Reference set (3 entries):
CNC(=C[N+](=O)[O-])NCCSCc1ccc(CN(C)C)o1; 234.4
COC(=O)C1=C(C)NC(C)=C(C(=O)OC)C1c1ccccc1[N+](=O)[O-]; 227.8
Brc1ccccc1; 210.3

Quick note, TERMINAL_BW for "O=C(OC[C@H]1O[C@@H](OC(=O)c2cc(O)c(O)c(OC(=O)c3cc(O)c(O)c(O)c3)c2)[C@H](OC(=O)c2cc(O)c(O)c(OC(=O)c3cc(O)c(O)c(O)c3)c2)[C@@H](OC(=O)c2cc(O)c(O)c(OC(=O)c3cc(O)c(O)c(O)c3)c2)[C@@H]1OC(=O)c1cc(O)c(O)c(OC(=O)c2cc(O)c(O)c(O)c2)c1)c1cc(O)c(O)c(OC(=O)c2cc(O)c(O)c(O)c2)c1" landed at 216

Documented TERMINAL_BW of "Nc1c2c(nc3ccccc13)CCCC2" : 222.7

TERMINAL_BW for "CCOc1ccc(NC(C)=O)cc1" is 242.4

###

Overview of reported RALB across a group of molecules:
organism: Rattus norvegicus; test: Open TG-GATES - Regimen: Daily Repeat; format: toxicity, organism-based, Sprague-Dawley; design: regimen Daily Repeat, gender Male, age 6 weeks; conditions: in vivo, po, 1000 mg/kg, […], tissue Plasma, route gavage, dose level High, time 14 day

# annotated cases, reported RALB shown
CCOc1ccc(NC(C)=O)cc1; 2.7 g/dL
CNC(=C[N+](=O)[O-])NCCSCc1ccc(CN(C)C)o1; 3.5 g/dL
CN/C(=N/CCSCc1nc[nH]c1C)NC#N; 3.4 g/dL
COC(=O)C1=C(C)NC(C)=C(C(=O)OC)C1c1ccccc1[N+](=O)[O-]; 2.8 g/dL
O=C(OC[C@H]1O[C@@H](OC(=O)c2cc(O)c(O)c(OC(=O)c3cc(O)c(O)c(O)c3)c2)[C@H](OC(=O)c2cc(O)c(O)c(OC(=O)c3cc(O)c(O)c(O)c3)c2)[C@@H](OC(=O)c2cc(O)c(O)c(OC(=O)c3cc(O)c(O)c(O)c3)c2)[C@@H]1OC(=O)c1cc(O)c(O)c(OC(=O)c2cc(O)c(O)c(O)c2)c1)c1cc(O)c(O)c(OC(=O)c2cc(O)c(O)c(O)c2)c1; 3.8 g/dL

Data point: "Cc1nnc2n1-c1ccc(Cl)cc1C(c1ccccc1Cl)=NC2" ; RALB = 2.6 g/dL

###

species on record: Rattus norvegicus; experiment: Open TG-GATES - Regimen: Daily Repeat; type: toxicity, organism-based, Sprague-Dawley; design: regimen Daily Repeat, gender Male, age 6 weeks; details: in vivo, po, 100 mg/kg, […], route gavage, dose level Low, time 28 day
Experimental Readout: TERMINAL_BW (g)
Kindly provide the numeric value in g only, without the unit symbol.

Worked set:
O=C(OC[C@H]1O[C@@H](OC(=O)c2cc(O)c(O)c(OC(=O)c3cc(O)c(O)c(O)c3)c2)[C@H](OC(=O)c2cc(O)c(O)c(OC(=O)c3cc(O)c(O)c(O)c3)c2)[C@@H](OC(=O)c2cc(O)c(O)c(OC(=O)c3cc(O)c(O)c(O)c3)c2)[C@@H]1OC(=O)c1cc(O)c(O)c(OC(=O)c2cc(O)c(O)c(O)c2)c1)c1cc(O)c(O)c(OC(=O)c2cc(O)c(O)c(O)c2)c1; 380.6
CNC(=C[N+](=O)[O-])NCCSCc1ccc(CN(C)C)o1; 381.6
Cc1nnc2n1-c1ccc(Cl)cc1C(c1ccccc1Cl)=NC2; 393.2

Field TERMINAL_BW (entry "CN/C(=N/CCSCc1nc[nH]c1C)NC#N" ) reads 402.8

Documented TERMINAL_BW of "CCOc1ccc(NC(C)=O)cc1" : 411.2

get_value(item= "COC(=O)C1=C(C)NC(C)=C(C(=O)OC)C1c1ccccc1[N+](=O)[O-]" , readout=TERMINAL_BW) returns 378.4

###

species: Rattus norvegicus; assay: Open TG-GATES - Regimen: Single; type: toxicity, organism-based, Sprague-Dawley; parameters: regimen Single, gender Male, age 6 weeks; details: in vivo, po, 1000 mg/kg, 24 h, tissue Blood, route gavage, dose level High
Experimental Readout: Eos (%)
Number only, in %; omit the unit.

The following molecules have reported results that may help.
O=C(OC[C@H]1O[C@@H](OC(=O)c2cc(O)c(O)c(OC(=O)c3cc(O)c(O)c(O)c3)c2)[C@H](OC(=O)c2cc(O)c(O)c(OC(=O)c3cc(O)c(O)c(O)c3)c2)[C@@H](OC(=O)c2cc(O)c(O)c(OC(=O)c3cc(O)c(O)c(O)c3)c2)[C@@H]1OC(=O)c1cc(O)c(O)c(OC(=O)c2cc(O)c(O)c(O)c2)c1)c1cc(O)c(O)c(OC(=O)c2cc(O)c(O)c(O)c2)c1; 1
Cc1nnc2n1-c1ccc(Cl)cc1C(c1ccccc1Cl)=NC2; 0.8
CN/C(=N/CCSCc1nc[nH]c1C)NC#N; 1

Entry under test: "CNC(=C[N+](=O)[O-])NCCSCc1ccc(CN(C)C)o1" . Its Eos was 1

Eos reported for this molecule "COC(=O)C1=C(C)NC(C)=C(C(=O)OC)C1c1ccccc1[N+](=O)[O-]" : 0.8
